tested on: DU-145; experiment: Cytotoxicity against human DU145 cells assessed as reduction in cell viability after 24 hrs by MTT assay; assay type: functional, cell-based; details: DU-145, 24 h
Catalogue of molecules with associated IC50
# output: bare number, implied unit µg/mL

Solved cases below.
Molecule	System under test	Quantitative result
COc1cc2nc(Cl)nc(NS(=O)(=O)c3cccs3)c2cc1OC	DU-145	16.4
COc1cc2nc(Cl)nc(NS(=O)(=O)c3ccc(C)cc3C)c2cc1OC	DU-145	47.8
COc1cc([C@@H]2c3cc4c(cc3[C@@H](O[C@@H]3O[C@@H]5CO[C@@H](C)O[C@H]5[C@H](O)[C@H]3O)[C@H]3COC(=O)[C@H]23)OCO4)cc(OC)c1O [ETOPOSIDE]	DU-145	6.17

The record that follows has no IC50 shown yet.
stdin: For DU-145, give the measured IC50 of the entry `COc1cc2nc(Cl)nc(NS(=O)(=O)c3cccc4ccccc34)c2cc1OC`
stdout: 63.6
